Values from patent US11130756B2

# Target Or System: human TLR8 (Homo sapiens)
# Sequence (Q9NR97 27-1041): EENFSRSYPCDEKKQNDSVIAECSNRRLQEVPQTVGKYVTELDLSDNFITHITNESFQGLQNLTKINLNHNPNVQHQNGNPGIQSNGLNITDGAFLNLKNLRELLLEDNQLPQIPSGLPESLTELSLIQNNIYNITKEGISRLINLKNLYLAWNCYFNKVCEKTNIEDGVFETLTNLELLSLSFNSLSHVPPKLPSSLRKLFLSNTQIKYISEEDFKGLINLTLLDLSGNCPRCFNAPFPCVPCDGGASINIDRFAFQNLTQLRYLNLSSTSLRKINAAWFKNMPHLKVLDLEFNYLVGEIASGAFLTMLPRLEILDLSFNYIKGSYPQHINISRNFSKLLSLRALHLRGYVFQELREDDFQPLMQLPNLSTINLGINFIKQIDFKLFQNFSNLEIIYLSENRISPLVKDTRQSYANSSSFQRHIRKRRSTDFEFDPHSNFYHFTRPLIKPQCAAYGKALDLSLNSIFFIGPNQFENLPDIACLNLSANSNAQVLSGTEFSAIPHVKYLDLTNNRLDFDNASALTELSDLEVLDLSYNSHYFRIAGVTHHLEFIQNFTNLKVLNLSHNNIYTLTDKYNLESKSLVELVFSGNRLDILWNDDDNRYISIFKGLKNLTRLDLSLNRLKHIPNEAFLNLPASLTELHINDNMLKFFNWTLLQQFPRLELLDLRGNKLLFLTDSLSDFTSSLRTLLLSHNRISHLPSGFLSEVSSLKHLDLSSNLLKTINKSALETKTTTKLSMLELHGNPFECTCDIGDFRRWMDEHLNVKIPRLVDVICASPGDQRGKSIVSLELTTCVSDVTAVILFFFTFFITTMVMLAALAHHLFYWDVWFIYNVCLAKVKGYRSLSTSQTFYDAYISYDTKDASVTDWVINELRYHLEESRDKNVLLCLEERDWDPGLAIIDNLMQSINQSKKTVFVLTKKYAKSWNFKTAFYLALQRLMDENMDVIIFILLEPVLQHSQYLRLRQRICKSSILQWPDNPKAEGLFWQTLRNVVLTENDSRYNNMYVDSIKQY
# Assay: TLR8 inhibition reporter assay (HEK-Blue, SEAP)
# Experimental Setup: HEK-Blue cells overexpressing human TLR8, R848 15.9 μM, 22 hour incubation

# Compound, IC50, nM
measured = [
    ("Cc1cc(-c2[nH]c3ccc(C4CCN(Cc5ncn(C)n5)CC4)cc3c2C(C)C)cn2cnnc12", 10.1),
    ("Cc1c(-c2[nH]c3ccc(C4CC(C)N(CC(=O)N(C)C)C(C)C4)cc3c2C(C)C)cn2cnnc2c1C (stereo not drawn)", 121),
    ("Cc1c(-c2[nH]c3ccc(C4CCN(Cc5ncn(C)n5)CC4)cc3c2C(C)C)cn2cnnc2c1Cl", 21.9),
    ("Cc1c(-c2[nH]c3ccc(C4CCN(Cc5ncn(C)n5)CC4)cc3c2C(C)C)ccc2nncn12", 27.9),
    ("COCc1nnc2ccc(-c3[nH]c4ccc(C5CCNCC5)cc4c3C(C)C)cn12", 1230),
    ("Cc1cc2nncn2cc1-c1[nH]c2ccc(C3CCN(CC(=O)N(C)C)CC3)cc2c1C(C)C", 715),
    ("COc1cc(-c2[nH]c3ccc(C4CCN(CC(=O)N(C)C)CC4)cc3c2C(C)C)cn2cnnc12", 19.5),
    ("Cc1c(-c2[nH]c3ccc(C4C[C@H]5CC[C@@H](C4)N5CC(=O)N(C)C)cc3c2C(C)C)cn2cnnc2c1C (single isomer, unassigned) [Example 119]", 103),
    ("COc1cc(-c2[nH]c3ccc(C4CCN(CCCC(F)(F)F)CC4)cc3c2C(C)C)cn2cnnc12", 10.6),
    ("Cc1nnc2ccc(-c3[nH]c4ccc(C5CCNCC5)cc4c3C(C)C)cn12", 40.7),
    ("Cc1cc(-c2[nH]c3ccc(C4CCN(CC(=O)N(C)C)CC4)cc3c2C(C)C)cn2c(C)nnc12", 4.6),
    ("Cc1c(-c2[nH]c3ccc(C4CCN(CCS(C)(=O)=O)CC4)cc3c2C(C)C)cn2cnnc2c1Cl", 8.6),
    ("COc1cc(-c2[nH]c3ccc(C4CCN(C5COC5)CC4)cc3c2C(C)C)cn2cnnc12", 26.8),
    ("Cc1c(-c2[nH]c3ccc(C4CCN(CCN5CCCC5=O)CC4)cc3c2C(C)C)cn2cnnc2c1C", 13),
    ("Cc1c(-c2[nH]c3ccc(C4CCN(C5CCOC5)CC4)cc3c2C(C)C)cn2cnnc2c1C (single isomer, unassigned) [Example 103]", 11.7),
]
